assay_overview: toxicity in mice
condition_summary: mouse, in vivo, ip, LD50, multiple dose (qd 1→9) i.p.
assay_endpoint: LD50 (mg/kg)
Write it as a number; the unit mg/kg goes unstated.

Lookup: For the molecule CO[C@@H]1[C@H](O)C[C@@H](O[C@@H]2C[C@H](Oc3cc4cc5c(c(O)c4c(O)c3C)C(=O)[C@@H](O[C@H]3C[C@@H](O[C@H]4C[C@@H](O[C@H]6C[C@](C)(O)[C@@H](OC(C)=O)[C@H](C)O6)[C@H](O)[C@@H](C)O4)[C@H](O)[C@@H](C)O3)[C@H]([C@H](OC)C(=O)[C@@H](O)[C@@H](C)O)C5)O[C@H](C)[C@@H]2OC(C)=O)O[C@@H]1C [Chromomycin A3, chromomycin A3] , what LD50 is on record?
Found: 0.23

###

assay_overview: toxicity in mice
condition_summary: mouse, in vivo, iv, LD50, single dose i.v.
assay_endpoint: LD50 (mg/kg)
Quick note: give the figure in mg/kg, leave out the unit.

Lookup: Which LD50 reading was recorded for the molecule CO[C@@H]1[C@H](O)C[C@@H](O[C@@H]2C[C@H](Oc3cc4cc5c(c(O)c4c(O)c3C)C(=O)[C@@H](O[C@H]3C[C@@H](O[C@H]4C[C@@H](O[C@H]6C[C@](C)(O)[C@@H](OC(C)=O)[C@H](C)O6)[C@H](O)[C@@H](C)O4)[C@H](O)[C@@H](C)O3)[C@H]([C@H](OC)C(=O)[C@@H](O)[C@@H](C)O)C5)O[C@H](C)[C@@H]2OC(C)=O)O[C@@H]1C [Chromomycin A3, chromomycin A3] ?
Found: 0.41

Measured values drawn from patent US4675187A for this set.
